- Test system: calf thymus ctDNA
- Method Notes: UV–Vis titration with ctDNA (Scatchard)
- Format: binding
- Study Conditions: UV–Vis titration, PBS, pH 7; calculated by Scatchard equation
Parameter: Hypochromic effect H/%, ctDNA (%)
Please respond with the number in % and leave the unit unwritten.

Which Hypochromic effect H/%, ctDNA is reported for this molecule? Cl.Cl.N=C(N)c1ccc2[nH]c(-c3ccc(OCc4cn(CSc5ccccc5)nn4)cc3)nc2c1 [Compound 7e]
38.2

Would you kindly share the measured Hypochromic effect H/%, ctDNA for CC(C)NC(=N)c1ccc2[nH]c(-c3ccc(OCc4cn(-c5ccccc5Cl)nn4)cc3)nc2c1.Cl.Cl [Compound 8c] ?
33.8

Give its Hypochromic effect H/%, ctDNA value. Item: COc1ccc(-n2cc(COc3ccc(-c4nc5cc(C(=N)NC(C)C)ccc5[nH]4)cc3)nn2)cc1.Cl.Cl [Compound 8b]
29.7

Which Hypochromic effect H/%, ctDNA value is on record for N=C(N)c1ccc2[nH]c(-c3ccc(OCc4cn(-c5ccccc5)nn4)cc3)nc2c1 [Compound 7a] ?
7.8

State the recorded Hypochromic effect H/%, ctDNA for this entry: Cl.Cl.Clc1ccccc1-n1cc(COc2ccc(-c3nc4cc(C5=NCCN5)ccc4[nH]3)cc2)nn1 [Compound 9c]
11.7

---

Listed below: ΔTm, polyA-polyU, r = 0.3 values for each entry.
- Tested on: polyA-polyU
- Method Notes: Thermal melting (ΔTm) of polyA-polyU
- Assay type: binding
- Study Conditions: r = 0.3; first melting midpoint
Please state the figure in °C; there is no need to write the unit.

CC(C)NC(=N)c1ccc2[nH]c(-c3ccc(OCc4cn(CSc5ccccc5)nn4)cc3)nc2c1.Cl.Cl [Compound 8e] = 0.23
c1ccc(Cn2cc(COc3ccc(-c4nc5cc(C6=NCCN6)ccc5[nH]4)cc3)nn2)cc1 [Compound 9d] = 1.42
COc1ccc(-n2cc(COc3ccc(-c4nc5cc(C(=N)NC(C)C)ccc5[nH]4)cc3)nn2)cc1.Cl.Cl [Compound 8b] = 1.32
CC(C)NC(=N)c1ccc2[nH]c(-c3ccc(OCc4cn(-c5ccccc5)nn4)cc3)nc2c1 [Compound 8a] = 0.64

Given N=C(N)c1ccc2[nH]c(-c3ccc(OCc4cn(-c5ccccc5)nn4)cc3)nc2c1 [Compound 7a] , state its recorded ΔTm, polyA-polyU, r = 0.3.
1.74

Look at this molecule and give its reported ΔTm, polyA-polyU, r = 0.3. Cl.Cl.c1ccc(SCn2cc(COc3ccc(-c4nc5cc(C6=NCCN6)ccc5[nH]4)cc3)nn2)cc1 [Compound 9e]
0.47

Would you kindly share the measured ΔTm, polyA-polyU, r = 0.3 for Cl.Cl.N=C(N)c1ccc2[nH]c(-c3ccc(OCc4cn(-c5ccccc5Cl)nn4)cc3)nc2c1 [Compound 7c] ?
2.72

---

MIC, E. faecalis ATCC 29212, per-entry values.
Number first, unit second: that is the form wanted.

Use the examples below as a reference point.
c1ccc(Cn2cc(COc3ccc(-c4nc5cc(C6=NCCN6)ccc5[nH]4)cc3)nn2)cc1 = 128 µg/mL
Cl.Cl.c1ccc(SCn2cc(COc3ccc(-c4nc5cc(C6=NCCN6)ccc5[nH]4)cc3)nn2)cc1 = 128 µg/mL
CC1(C)S[C@@H]2[C@H](NC(=O)[C@H](N)c3ccccc3)C(=O)N2[C@H]1C(=O)O [Ampicillin, ampicillin, reference compound] = 2 µg/mL

API: value(readout=MIC, system=E. faecalis ATCC 29212) for record COc1ccc(-n2cc(COc3ccc(-c4nc5cc(C(=N)NC(C)C)ccc5[nH]4)cc3)nn2)cc1.Cl.Cl
64 µg/mL

---

- System: polyA-polyU (RNA, polymer) A/U
- Method Notes: UV-Vis titration, Scatchard
- Study Conditions: PBS, I = 0.05 M (Table 1 says I = 0.015 M), cations not specified, I = 0.015 M (Methods: 0.05 M), pH 7, per base
log Ks listing for selected molecules.
Lab note: record just the number, no unit beside it.

CC(C)NC(=N)c1ccc2[nH]c(-c3ccc(OCc4cn(-c5ccccc5Cl)nn4)cc3)nc2c1.Cl.Cl = 6.00
COc1ccc(-n2cc(COc3ccc(-c4nc5cc(C(=N)NC(C)C)ccc5[nH]4)cc3)nn2)cc1.Cl.Cl = 5.27
CC(C)NC(=N)c1ccc2nc(-c3ccc(OCc4cn(CSc5ccccc5)nn4)cc3)[nH]c2c1 = 5.96

Look at this molecule and give its reported log Ks. N=C(N)c1ccc2[nH]c(-c3ccc(OCc4cn(-c5ccccc5)nn4)cc3)nc2c1
5.24

Origin of values: paper PMC6127852
